Tgt: T1, mouse Transferrin Receptor overexpressed on Hek 293 cells (mouse, UniProt Q62351 1-763)
T1 construct: whole, on cells; also called Hek293/mTfR; 293/mTFR
Assay protocol: cell-based MSD-ECL binding on Hek293 cells overexpressing mouse TfR
Measurement type: EC50 (nM)
Expressed in nM, but write only the number.

Prompt: Any idea what its EC50 is? The binder is AB221 (antibody, V domains shown, the assays detect/capture with anti-human IgG reagents; constant regions not assigned; also called TfR(AB221); anti-mouse TfR(AB221) antibody) VH: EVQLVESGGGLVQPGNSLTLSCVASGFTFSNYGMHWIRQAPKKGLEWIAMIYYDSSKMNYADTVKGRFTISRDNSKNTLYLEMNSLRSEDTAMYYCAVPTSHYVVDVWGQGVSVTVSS VL: DIQMTQSPASLSASLEEIVTITCQASQDIGNWLAWYQQKPGKSPQLLIYGATSLADGVPSRFSGSRSGTQFSLKISRVQVEDIGIYYCLQAYNTPWTFGGGTKLELKR
Response: 0.1
